method-description: Primary qHTS for delayed death inhibitors of the malarial parasite plastid, 48 hour incubation
cond: P. falciparum luciferase growth in erythrocytes; series mostly up to 28.7 µM
Hit rate of the full screen: of about 310,000 compounds, about 18,000 (5.8%) were called active. Inconclusive results (about 22%) are left out. Calls come from the whole dose curve; as a rule, active = well fitted inhibition curve with a large enough effect; inconclusive = small, poorly fitted or top-dose-only effect, or another doubt; inactive = no such curve, though single readings can be large or run the other way. This excerpt belongs to a sample that is enriched for actives.
Possible outcomes: TRUE for active, FALSE for inactive

>>> classification("NC(=O)CCN1CCN(S(=O)(=O)/C=C/c2ccccc2)CC1")
"FALSE"
>>> classification("C/C(=N\\N(C)C)c1ccc(OCCOc2ccc([N+](=O)[O-])cc2)cc1")
"FALSE"
>>> classification("Cc1nc2ccc(C(=O)N/N=C/c3ccc(O)cc3)cc2[nH]1")
"FALSE"
>>> classification("O=c1ccc(-c2ccc(S(=O)(=O)Nc3ccccc3)o2)n[nH]1")
"FALSE"
>>> classification("O=C1C=C(c2cccc(Br)c2)C[C@@H](c2ccc(F)cc2)C1")
"TRUE"
>>> classification("Cn1c(SCc2ccc(F)cc2)nnc1-c1ccncc1")
"FALSE"
>>> classification("COc1ccc(NS(=O)(=O)c2ccc(NC(C)=O)cc2)cc1OC")
"FALSE"
>>> classification("COc1ccc(/C=C(/NC(=O)c2ccccc2)C(=O)Nc2cccc(C(=O)O)c2)cc1")
"FALSE"
>>> classification("CC(Sc1nnc(-c2ccccc2F)n1C1CC1)C(N)=O (centres undefined)")
"FALSE"
>>> classification("CCc1ccc(NC(=O)CN2CCC(C(=O)c3ccc(OC)cc3)CC2)cc1")
"FALSE"
>>> classification("CCC(c1nnnn1Cc1ccco1)N(CCc1ccccc1)Cc1cc2ccc(OC)cc2[nH]c1=O (centres undefined)")
"TRUE"
>>> classification("CC(=O)c1ccc(NC(=O)C2CCCN2S(=O)(=O)c2cccs2)cc1 (centres undefined)")
"FALSE"
>>> classification("COc1ccc(OCC(O)CN(C)C(=O)C(C)Oc2ccccc2)cc1 (centres undefined)")
"FALSE"
>>> classification("CCc1cc(C(=O)c2ccc(OC)cc2)c(NC(=O)CN2CCN(C)CC2)s1")
"TRUE"
>>> classification("CN(C(=O)COC(=O)c1nc(Cl)ccc1Cl)C1CCS(=O)(=O)C1 (centres undefined)")
"FALSE"
>>> classification("OCC[C@H]1C[C@@H](O)[C@H](O)[C@]2(OCCCc3ccccc32)O1")
"FALSE"
>>> classification("O=c1[nH]c(/C=C\\c2cccc(C(F)(F)F)c2)nc(O)c1[N+](=O)[O-]")
"TRUE"
>>> classification("Cc1ccc(NS(=O)(=O)c2cc3c(cc2C)NC(=O)CO3)cc1")
"FALSE"
>>> classification("CN(C)c1ccc(N/C=C/C(=O)C(F)(F)F)cc1")
"TRUE"
>>> classification("CCn1c(=S)sc2c(=O)n(CC(=O)Nc3ccc(OC)cc3)c(C)nc21")
"FALSE"
>>> classification("N#CC1=C(SCc2ccccc2)NC(=O)C(C#N)C12CCCC2 (centres undefined)")
"FALSE"
>>> classification("CCOc1ccc(NC(=O)c2ccc(NC(=O)C3CCCO3)cc2)cc1 (centres undefined)")
"FALSE"
>>> classification("Cc1ccc(S(=O)(=O)CCC(=O)OCC(=O)N(C)C2CCS(=O)(=O)C2)cc1 (centres undefined)")
"FALSE"
>>> classification("O=C(/C=C/Nc1ccccc1OC(F)(F)F)C(F)(F)F")
"FALSE"
>>> classification("Cc1cc(C)c(C#N)c(SCc2ccccc2C(=O)O)n1")
"FALSE"
>>> classification("COc1cccc(CN(C)CC(O)COC(c2ccccc2)c2ccccc2C)c1 (centres undefined)")
"TRUE"
>>> classification("COc1cccc(C2=CC(=O)C[C@H](c3ccc(F)cc3)C2)c1OC")
"FALSE"
>>> classification("CC(NC(=O)CSc1nc2c(cc1C#N)CN(C)CC2)c1ccccc1 (centres undefined)")
"TRUE"
>>> classification("CC(=O)c1cccc(NC(=S)N2CCCC2)c1")
"FALSE"
>>> classification("O=c1oc2ccccc2c(NC2CCCCC2)c1NS(=O)(=O)c1ccc(Cl)cc1")
"FALSE"
>>> classification("O=C(COC(=O)c1ccc([N+](=O)[O-])cc1Cl)NC(=O)c1ccccc1")
"FALSE"
>>> classification("CCc1cc(C(N)=O)c(NC(=O)c2ccc(OC)cc2)s1")
"FALSE"
>>> classification("Cc1onc(-c2ccccc2)c1C(=O)N1CCN(S(=O)(=O)c2ccccc2C(F)(F)F)CC1")
"FALSE"
>>> classification("CCc1ccc2c(c1)C1(NN=C(c3ccccc3)S1)C(=O)N2 (centres undefined)")
"TRUE"
>>> classification("Cc1ccccc1NC(=O)c1cc(S(=O)(=O)Nc2cccc(C(=O)O)c2)ccc1Cl")
"FALSE"
>>> classification("Nc1nc(SCC(=O)Nc2ccc(Cl)c([N+](=O)[O-])c2)n[nH]1")
"FALSE"
>>> classification("O=S(=O)(/C=C/c1ccccc1)N1CCNCC1")
"FALSE"
>>> classification("CC(C)NC(=O)COCc1cc(-c2ccc3c(c2)OCO3)on1")
"FALSE"
>>> classification("Cc1[nH]c(C)c(S(=O)(=O)N2CCC(C)CC2)c1C(=O)N1CCCC1")
"FALSE"
>>> classification("Cc1cc(NC(=O)CSc2nc3c(cc2C#N)CCCCC3)no1")
"FALSE"
>>> classification("O=S(=O)(c1ccc(F)cc1)N1CCN(Cc2ccccc2C(F)(F)F)CC1")
"FALSE"
>>> classification("O=C(CCS(=O)(=O)c1ccccc1)NC1CCCC1")
"FALSE"
>>> classification("O=C1CC(c2cccc(Br)c2)C2=C(CCCC2=O)N1 (centres undefined)")
"FALSE"
>>> classification("Cc1ccc2c(CN3CCN(S(=O)(=O)c4ccccc4C(F)(F)F)CC3)cc(=O)oc2c1")
"TRUE"
